Readings of CC50 for the listed compounds
Test system: PANC-1
experiment: SRB colorimetric assay of cell growth and viability, PANC-1
Format: cell-based, human
cond: 48 hours exposure; read-out: LC50 PANC-1
Where a SMILES comes first, the peptide text is derived from it. Bridges are numbered along the chain shown (N, C = ends). [ ]: non-standard residue; d: D form. The star is where a group is joined. d(aIle) = CC[C@H](C)[C@@H](N)C(=O)O; d(aThr) = C[C@@H](O)[C@@H](N)C(=O)O; Hexanoyl(5-Me) = CC(C)CCCC(=O)*; Myristoyl = CCCCCCCCCCCCCC(=O)*; Orn = NCCC[C@H](N)C(=O)O; Dhb = C/C=C(\N)C(=O)O

{"compound": "C/C=C1\\NC(=O)[C@H](Cc2ccccc2)NC(=O)[C@@H](C(C)C)NC(=O)[C@@H]([C@@H](C)CC)NC(=O)[C@H](NC(=O)[C@H](NC(=O)[C@H](CCCN)NC(=O)[C@H]2CCCN2C(=O)[C@H](NC(=O)[C@H](Cc2ccccc2)NC(=O)[C@@H](NC(=O)[C@H](NC(=O)CCCC(C)C)C(C)C)[C@@H](C)O)C(C)C)[C@@H](C)CC)[C@@H](C)OC(=O)[C@H](C(C)C)NC1=O [Compound 43, [Phe^11]-KF] ({Hexanoyl(5-Me)}-[dV]TF[dV][dP][Orn][d(aIle)][d(aThr)][d(aIle)][dV]F[Dhb]V; ester 8-C)", "CC50": "6.55 µM"}
{"compound": "C/C=C1\\NC(=O)[C@H](Cc2ccccc2)NC(=O)[C@@H](C(C)C)NC(=O)[C@@H]([C@@H](C)CC)NC(=O)[C@H](NC(=O)[C@H](NC(=O)[C@H](CCCN)NC(=O)[C@H]2CCCN2C(=O)[C@H](NC(=O)CCCCCCCCCCCCC)C(C)C)[C@@H](C)CC)[C@@H](C)OC(=O)[C@H](C(C)C)NC1=O [Compound 32] (Myristoyl-[dV][dP][Orn][d(aIle)][d(aThr)][d(aIle)][dV]F[Dhb]V; ester 5-C)", "CC50": "5.49 µM"}
